experiment: Stability of cannabinoid and Vitamin E components of Beverage 2 (AB Red) stored at 8° C. and 21-25° C., LCMSMS over 570 days; settings: 21-25° C., 510 days
property.label: Stability of Cannabinoids in AB Red (µg/mL)
Field: numeric (µg/mL). Do not append units.

## Input What measured Stability of Cannabinoids in AB Red goes with CCCCCc1cc(O)c2c(c1)OC(C)(C)c1ccc(C)cc1-2 [CBN, cannabinol] ?
## Output 2.66

## Input Stability of Cannabinoids in AB Red for CCCCCc1cc(O)c2c(c1)OC(C)(CCC=C(C)C)C=C2 (stereo not drawn) [CBC, cannabichromene] ?
## Output 0.27

## Input Request the reported Stability of Cannabinoids in AB Red associated with CCCCCc1cc2c(c(O)c1C(=O)O)[C@@H]1C=C(C)CC[C@H]1C(C)(C)O2 [D9 THCA, delta-9-tetrahydrocannabinolic acid]
## Output 1.27

## Input For C=C(C)[C@@H]1CCC(C)=C[C@H]1c1c(O)cc(CCCCC)c(C(=O)O)c1O [CBDA, cannabidiolic acid] , what is its reported Stability of Cannabinoids in AB Red?
## Output 1.56

## Input What value of Stability of Cannabinoids in AB Red has been recorded for this entry: C=C(C)[C@@H]1CCC(C)=C[C@H]1c1c(O)cc(CCC)cc1O [CBDV, cannabidivarin]
## Output 0.19

## Input Sample CCCCCc1cc(O)c(C/C=C(\C)CCC=C(C)C)c(O)c1 [CBG, cannabigerol] — what was its Stability of Cannabinoids in AB Red?
## Output 4.37

## Input Which Stability of Cannabinoids in AB Red is reported for this compound? CCCCCc1cc(O)c2c(c1)OC1(C)CCC3C1C2C3(C)C (stereo not drawn) [CBL, cannabicyclol]
## Output 0.47

## Input So what's the measured Stability of Cannabinoids in AB Red for this one? CCCCCc1cc(O)c2c(c1)OC(C)(C)[C@@H]1CCC(C)=C[C@@H]21 [D9 THC, delta-9-tetrahydrocannabinol, reference compound]
## Output 12.3

## Input Data request, read-out Stability of Cannabinoids in AB Red, for CCCc1cc(O)c2c(c1)OC(C)(C)[C@@H]1CCC(C)=C[C@@H]21 [THCV, delta-9-tetrahydrocannabivarin]
## Output 3.01

Where do the numbers come from? From patent US20240415914A1.
